- TARGET: human PPARdelta (Homo sapiens)
- Construct: human PPARdelta receptor (amino acids S139-Y441)
- ASSAY NAME: Cellular PPARdelta assay (HEK PPARdelta reporter cell line, luciferase)
- EXPERIMENTAL CONDITIONS: GR-GAL4-humanPPARdelta-LBD
Give measured EC50 for each item. Keep answers brief.
Numbers only, in µM.

List the reported EC50 of each compound below.
1. Cc1sc(-c2ccc(S(F)(F)(F)(F)F)cc2)nc1CCOc1ccc(-c2noc(=O)[nH]2)c(Cl)c1
2. Cc1nc(-c2ccc(C(F)(F)F)cc2)sc1CSc1ccc(-c2noc(=O)[nH]2)cc1
3. COCCOCc1nc(-c2ccc(C(F)(F)F)cc2)sc1COc1ccc(-c2noc(=O)[nH]2)c(Cl)c1

[0.31, 0.068, 0.001]

List the reported EC50 of each compound below.
1. CCCCc1nc(-c2ccc(C(F)(F)F)cc2)sc1COc1cc(F)c(-c2noc(=O)[nH]2)c(F)c1
2. CCCCc1nc(-c2ccc(C(F)(F)F)cc2)sc1COc1ccc(Cc2noc(=O)[nH]2)c(Cl)c1

0.01
0.011

* * *

- TARGET: human PPARdelta (Homo sapiens, UniProt Q03181)
- Construct: human PPARdelta receptor (amino acids S139-Y441)
- Sequence (Q03181 139-441): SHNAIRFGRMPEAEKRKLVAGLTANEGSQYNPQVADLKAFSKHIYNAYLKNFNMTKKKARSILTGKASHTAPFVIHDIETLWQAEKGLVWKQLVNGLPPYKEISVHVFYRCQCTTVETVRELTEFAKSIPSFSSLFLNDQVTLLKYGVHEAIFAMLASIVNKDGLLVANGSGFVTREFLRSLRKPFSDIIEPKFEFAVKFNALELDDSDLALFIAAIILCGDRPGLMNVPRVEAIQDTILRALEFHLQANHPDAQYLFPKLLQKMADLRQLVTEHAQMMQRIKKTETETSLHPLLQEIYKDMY
- ASSAY NAME: Cellular PPARdelta assay (HEK PPARdelta reporter cell line, luciferase)
- EXPERIMENTAL CONDITIONS: GR-GAL4-humanPPARdelta-LBD
- Experimental: Determination of EC50 Values of PPAR Agonists in the Cellular PPARdelta Assay The potency of substances which bind to human PPARdelta and activate it in an agonistic manner is analyzed using a stably transfected HEK cell line (HEK=human embryo kidney) which is referred to here as PPARdelta reporter cell line. […] The luciferase which is formed can be detected by means of chemiluminescence via an appropriate substrate. […]
pEC50: −log10 of the molar value.
# cutoff 8 applies to pEC50; >= gives Condition met, < gives Condition not met

See these solved cases before continuing.
- CCCCc1nc(-c2ccc(C(F)(F)F)cc2)sc1COc1ccc(-c2noc(=O)[nH]2)c(C(F)(F)F)c1: Condition met
- O=c1[nH]c(-c2ccc(OCc3sc(-c4ccc(C(F)(F)F)cc4)nc3CCCOCc3ccccc3)cc2Cl)no1: Condition met
- O=c1[nH]c(-c2ccc(OCc3sc(-c4ccc(C(F)(F)F)cc4)nc3CCCCO)cc2Cl)no1: Condition not met
- Cc1nc(-c2ccc(C(F)(F)F)cc2)sc1COc1ccc(-c2noc(=O)[nH]2)c(Cl)c1: Condition not met

Next:
Does `CCCCc1nc(-c2ccc(C(F)(F)F)cc2)sc1COCc1ccc(-c2noc(=O)[nH]2)c(F)c1` have a reported pEC50 of at least 8?
Condition not met
